B1: NELF-E aptamer (parent)
chain: CCCAACGACUGCCGAGCGAGAUUACGCUUGAGCGCCCCACUGAGGAUGCCCACGGGCGAUUGGGGCACGG

Variants of: B1
Procedure summary: HiTS-RAP
Stated conditions: with NELF-E (Drosophila)
Label YES when Kd < 6 nM; otherwise NO.

| Sequence text | Class name |
| --- | --- |
| CCCAACGACUGCCGAGCGAGAUUACGCUUGAGCGGCCCACUGAGGAUGCCCACGGGCGAUUGGGGCACGG [C35G] | NO |
| CCCAACGACGGCCGAGCGAGAUUACGCUUGAGCGCCCCACUGAGGAUGCCCACGGGCUAUUGGGGCACGG [U10G G58U] | NO |
| CCCAACGACUGCCUAGCGAGAUUAGGCUUGAGCGCCCCACUGAGGAUGCCCACGGGCGAUUGGGGCACGG [G14U C25G] | NO |
| CCCAACGGCUGCCGAGCGAGAUUACGCUUGAGCGCCCCACUGAGGAUGCCCACAGGCGAUUGGGGCACGG [A8G G54A] | NO |

Record CCCAACGACAGCCGAGCGAGAUUACGCUUGAGCGCCCCACUGAGGAUGCCCACGGGCGAUUGGGGCUCGG [U10A A67U] : is its Kd strictly below 6 nM? NO

# strict comparison: is reported Kd < 6 nM? input = CCCUACGACUGCCGAGCGAGAUUACACUUGAGCGCCCCACUGAGGAUGCCCACGGGCGAUUGGGGCACGG [A4U G26A] YES

Given CCCAACGACUGCCGAGCGAGAUUGCGCUUGAGCGCCCUACUGAGGAUGCCCACGGGCGAUUGGGGCACGG [A24G C38U] , is recorded Kd strictly lower than 6 nM? NO

Decide: Kd of CCCAACUACUGCCGAGCGAGAUUAUGCUUGAGCGCCCCACUGAGGAUGCCCACGGGCGAUUGGGGCACGG [G7U C25U] strictly below 6 nM? YES

is_below(Kd, 6 nM) for CCCAACGACGGCCGAGCGAGAUUACGCUUGAGCGCCCCACUAAGGAUGCCCACGGGCGAUUGGGGCACGG [U10G G42A] ? NO

Please indicate whether the reported Kd of CCCAACGGCUGCCGAGCGAGAUUACGCUUGAGCGCCCCACUAAGGAUGCCCACGGGCGAUUGGGGCACGG [A8G G42A] is strictly below 6 nM. NO

In plain terms, does CCCAGCGACUGCCGAGCGAGAUCACGCUUGAGCGCCCCACUGAGGAUGCCCACGGGCGAUUGGGGCACGG [A5G U23C] come in under 6 nM for Kd? YES
